- target_under_test: human GR (Homo sapiens, UniProt P04150)
- Construct: SW1353 naturally expresses human GR; endogenous in cells
- Sequence (P04150 whole entry): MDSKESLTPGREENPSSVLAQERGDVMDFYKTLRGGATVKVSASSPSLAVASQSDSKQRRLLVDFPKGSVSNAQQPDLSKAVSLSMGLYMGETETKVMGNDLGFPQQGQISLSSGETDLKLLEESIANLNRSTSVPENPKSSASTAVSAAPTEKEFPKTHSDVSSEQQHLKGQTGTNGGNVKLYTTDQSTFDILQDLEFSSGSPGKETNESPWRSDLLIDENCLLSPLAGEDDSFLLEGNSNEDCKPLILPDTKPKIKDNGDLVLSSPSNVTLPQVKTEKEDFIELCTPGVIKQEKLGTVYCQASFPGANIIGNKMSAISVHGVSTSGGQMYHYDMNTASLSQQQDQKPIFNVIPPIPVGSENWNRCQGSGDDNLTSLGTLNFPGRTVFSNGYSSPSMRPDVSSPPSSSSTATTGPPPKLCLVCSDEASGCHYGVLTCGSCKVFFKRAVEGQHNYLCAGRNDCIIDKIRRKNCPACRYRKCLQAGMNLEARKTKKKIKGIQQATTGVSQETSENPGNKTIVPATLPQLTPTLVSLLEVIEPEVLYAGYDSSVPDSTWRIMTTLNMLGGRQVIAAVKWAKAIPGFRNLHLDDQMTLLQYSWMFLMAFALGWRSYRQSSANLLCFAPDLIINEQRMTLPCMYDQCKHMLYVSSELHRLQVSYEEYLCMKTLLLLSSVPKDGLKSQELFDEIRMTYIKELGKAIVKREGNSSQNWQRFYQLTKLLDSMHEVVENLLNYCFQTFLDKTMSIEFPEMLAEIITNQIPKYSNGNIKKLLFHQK
- test_name: GR agonist potency, MMTV-luciferase reporter in SW1353 cells
- condition_summary: human chondrosarcoma cell-line SW1353 stably transfected with MMTV-luciferase reporter; approx. 18 hours; data as percentage of 1 μM dexamethasone positive control
Listed here are compounds together with their documented EC50.
measured_parameter: EC50 (nM)

>>> reported("CSc1cccc(Oc2ccc(C(=O)O[C@]3(C(=O)OCC#N)[C@H](C)C[C@H]4[C@@H]5C[C@H](F)C6=CC(=O)C=C[C@]6(C)[C@@]5(F)[C@@H](O)C[C@@]43C)cc2)c1")
25.2
>>> reported("C[C@@H]1C[C@H]2[C@@H]3CCC4=CC(=O)C=C[C@]4(C)[C@@]3(F)[C@@H](O)C[C@]2(C)[C@@]1(OC(=O)c1ccc(Oc2ccc(O)c(Cl)c2)cc1)C(=O)SCF")
26.4
>>> reported("C[C@]12C=CC(=O)C=C1CC[C@H]1[C@@H]3CC[C@](OC(=O)c4ccc(Sc5ccccc5)c(O)c4)(C(=O)OCC#N)[C@@]3(C)C[C@H](O)[C@@]12F")
44.8
>>> reported("C[C@]12C=CC(=O)C=C1CC[C@H]1[C@@H]3CC[C@](OC(=O)c4ccc(Sc5ccccc5)cc4)(C(=O)SCF)[C@@]3(C)C[C@H](O)[C@@]12F")
25.8
